- study-conditions: in n-propanol, 293.15 K
experimental-readout: solubility (mole fraction)

given-smiles: Cc1ccc(S(N)(=O)=O)cc1
solubility (mole fraction): 0.0358
--
given-smiles: Cc1ccccc1S(N)(=O)=O
solubility (mole fraction): 0.0274

###

- study-conditions: in n-butanol, 298.15 K
experimental-readout: solubility (mole fraction)

given-smiles: Cc1ccc(S(N)(=O)=O)cc1
solubility (mole fraction): 0.0358
--
given-smiles: Cc1ccccc1S(N)(=O)=O
solubility (mole fraction): 0.0286

###

- study-conditions: in isopropanol, 293.15 K
experimental-readout: solubility (mole fraction)

given-smiles: Cc1ccc(S(N)(=O)=O)cc1
measured-value: 0.0267
--
given-smiles: Cc1ccccc1S(N)(=O)=O
measured-value: 0.0246

###

- study-conditions: in n-butanol, 293.15 K
experimental-readout: solubility (mole fraction)

given-smiles: Cc1ccc(S(N)(=O)=O)cc1
solubility (mole fraction): 0.0316

given-smiles: Cc1ccccc1S(N)(=O)=O
solubility (mole fraction): 0.0257

###

- study-conditions: in ethyl acetate, 293.15 K
experimental-readout: solubility (mole fraction)

(1) Cc1ccccc1S(N)(=O)=O
(2) Cc1ccc(S(N)(=O)=O)cc1
Task: Form: Entry with minimum solubility (mole fraction) (choose one): 1 / 2 Record your answer as the label of the chosen record.
Output: 1

###

- study-conditions: in ethanol, 303.15 K
experimental-readout: solubility (mole fraction)

(a) Cc1ccccc1S(N)(=O)=O
(b) Cc1ccc(S(N)(=O)=O)cc1
Task: # returns the entry with the larger solubility (mole fraction); inputs a and b Record your answer as the label of the chosen record.
Output: b

###

- study-conditions: in ethanol, 313.15 K
experimental-readout: solubility (mole fraction)

(P) Cc1ccc(S(N)(=O)=O)cc1
(Q) Cc1ccccc1S(N)(=O)=O
Task: # returns the entry with the larger solubility (mole fraction); inputs P and Q Record your answer as the label of the chosen record.
Output: P
(P: 0.0801, Q: 0.042)

###

- study-conditions: in ethyl acetate, 303.15 K
experimental-readout: solubility (mole fraction)

(P) Cc1ccccc1S(N)(=O)=O
(Q) Cc1ccc(S(N)(=O)=O)cc1
Task: # returns the entry with the larger solubility (mole fraction); inputs P and Q Record your answer as the label of the chosen record.
Output: Q

###

- study-conditions: in methanol, 313.15 K
experimental-readout: solubility (mole fraction)

(a) Cc1ccccc1S(N)(=O)=O
(b) Cc1ccc(S(N)(=O)=O)cc1
Task: # returns the entry with the larger solubility (mole fraction); inputs a and b Record your answer as the label of the chosen record.
Output: b
